What PAM type was measured for each of the following?
biological target: hα7-wt nAChR (Homo sapiens); assay: Patch-clamp current recording (whole-cell voltage clamp), potentiation of choline current and PAM type; assay type: cell-based; design: key: Type 0 compounds minimally enhance the effect size of the current elicited by 1 mM choline.; Type 1 compounds enhance the effect size of the current elicited by 1 mM choline but minimally alter the kinetics of the receptor.; Type 2 compounds enhance the effect size of the current elicited by 1 mM choline while reducing the rate and/or the extent of desensitization.; Type 3 compounds enhance the effect size of the current elicited by 1 mM choline. When tested at higher concentrations up to 10 μM they completely inhibit desensitization, in particular a 1 mM choline application of 250 milliseconds.; Type 4 compounds allow for an initial desensitization of the receptor followed by a re-opening of the receptor during agonist application; conditions: hα7-wt nAChR-expressing GH4C1 cells, 1 mM choline
Sequence (P36544 23-502): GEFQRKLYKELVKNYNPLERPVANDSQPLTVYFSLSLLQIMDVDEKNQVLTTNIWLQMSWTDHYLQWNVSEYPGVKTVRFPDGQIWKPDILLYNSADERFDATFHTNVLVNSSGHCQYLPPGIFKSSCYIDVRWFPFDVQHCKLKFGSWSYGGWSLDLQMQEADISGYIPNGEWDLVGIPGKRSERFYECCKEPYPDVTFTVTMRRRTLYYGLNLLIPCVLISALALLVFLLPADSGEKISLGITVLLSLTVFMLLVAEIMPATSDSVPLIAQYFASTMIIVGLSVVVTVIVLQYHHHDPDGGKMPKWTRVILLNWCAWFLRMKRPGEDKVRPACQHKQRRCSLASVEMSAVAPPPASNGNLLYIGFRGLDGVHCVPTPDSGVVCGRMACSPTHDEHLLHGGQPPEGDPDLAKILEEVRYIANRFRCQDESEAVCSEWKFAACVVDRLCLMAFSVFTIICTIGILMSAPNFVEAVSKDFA
One number for each entry.

Solved entries:
{"CHEM SMILES": "Cc1cc(-n2nc(Nc3ccc(F)c(F)c3)cc2CCC(=O)N(C)C)ccn1", "ASSAYED SYSTEM": "hα7-wt nAChR (Homo sapiens)", "PAM type": 4}
{"CHEM SMILES": "CC[C@H](O)Cc1cc(Nc2ccc3c(c2)OC(F)(F)O3)nn1-c1ccnc(C)c1", "ASSAYED SYSTEM": "hα7-wt nAChR (Homo sapiens)", "PAM type": 2}
{"CHEM SMILES": "CC[C@@H](O)Cc1cc(Nc2ccc(F)c(F)c2)nn1-c1ccnc(C)c1", "ASSAYED SYSTEM": "hα7-wt nAChR (Homo sapiens)", "PAM type": 2}

Now examine the next entry.
Prompt line: Given the entry CC[C@H](O)Cc1cc(Nc2cccc(Cl)c2)nn1-c1ccnc(C)c1 , report its measured PAM type.
Response line: 2
